Tested on: OVCAR-4 ovarian
Assay: NCI tumour cell line growth inhibition, 48 h
Where a SMILES comes first, the peptide text is derived from it. The star is where a group is joined. Palmitoyl = CCCCCCCCCCCCCCCC(=O)*
Quick list: TGI per entry.
Give the value in µM but do not write µM after it.

COC(=O)C(CCSC)NC(=O)CNC(=O)CSc1nnc(COc2ccc(Cl)cc2)n1-c1ccccc1 (stereo not given) = 50.1
O=C(c1cccs1)N(C(=S)OCCOc1ccccc1)c1ccccc1 = 86.7

As a next step, examine the compound that follows.
Quick one: TGI for CCCCCCCCCCCCCCCC(=O)N1CCCC1C(=O)NCC(=O)NC(Cc1ccccc1)C(=O)NC(C)C(=O)NC(CO)C(=O)NC(Cc1ccc(O)cc1)C(=O)NC(CCCCN)C(=O)NC(CC(C)C)C(=O)NC(CCCN=C(N)N)C(=O)N1CCCC1C(=O)NCC(N)=O (stereo not given) (Palmitoyl-PGFASYKLRPG-NH2; configuration not given here) ?
92.6

----------
Test system: MOLT-4 leukemia
Assay: NCI tumour cell line growth inhibition, 48 h
Quick list: TGI per entry.

COc1ccc(/C(Br)=C2\OC(=O)c3ccccc32)cc1 = > 10 µM
NC1CC(=O)c2c1sc(Cl)c2Cl (centres undefined) = > 100 µM
O=c1[nH]cc(F)c(=O)n1C1OC(CO)C(O)C1O (centres undefined) = > 100 µM

As a next step, examine the molecule that follows.
Quick one: TGI for CCCC1CCC(=C2C(=O)CCC2=O)O1 (centres undefined) ?
> 100 µM

----------
Tested on: OVCAR-4 ovarian
Test: NCI tumour cell line growth inhibition, 48 h
Endpoint: TGI (µM)
Give the value in µM but do not write µM after it.

Quick one: TGI for O[C@@]12Cc3c([nH]c4ccccc34)[C@@H]3Oc4cccc5c4[C@@]31CCN(CC1CC1)[C@@H]2C5 ?
41.3

Please answer likewise for CCC(=O)C(CCN1CCC2(CCCc3ccccc32)CC1)(c1ccccc1)c1ccccc1
18.7

Please answer likewise for CCCCCCCCCCCCC(Br)C(=O)NCC(N)=O (stereo unspecified)
12.6

----------
System: SW-620 colon
Test: NCI tumour cell line growth inhibition, 48 h; in the data active = GI50 below about 0.43 µM; inactive = the rest
Pick from active, inactive when you respond.

Reference set (3 entries):
C[C@]12CC[C@@H]3c4cc(OC(F)F)c(OS(N)(=O)=O)cc4CC[C@H]3[C@@H]1CC[C@@H]2O = active
CC1(C)CC(=O)C2=C(C1)OC(N)=C(c1nc(-c3ccccc3)cs1)C2c1ccc(Br)cc1 (centres undefined) = inactive
C/C(=N/N=C(\[O-])c1ccncc1)C(F)(F)F.C/C(=N\N=C(/[O-])c1ccncc1)C(F)(F)F.[Ni+2] = inactive

Moving on to the next compound.
State the result this test recorded for O=C(Nc1cccc(-n2cc(-c3ccncc3)c(-c3cc(O)cc(Cl)c3)n2)c1)c1cc(C(F)(F)F)cc(C(F)(F)F)c1 .
inactive

----------
Quick list: TGI per entry.
System: SW-620 colon
Test: NCI tumour cell line growth inhibition, 48 h

Answered cases to consult:
NC(=O)C(=CNC(=S)Nc1ccccc1)C(N)=O = > 100 µM
CCOP1(=O)CC(C)=C(Cl)C(O)C1 (centres undefined) = > 100 µM
Cc1nc(C(=O)O)c2ccccc2n1 = > 100 µM

Record C#CCNC(=O)[C@H](CC)[C@H]1CC[C@H](C)[C@H]([C@@H](C)[C@H](O)[C@H](C)C(=O)[C@H](CC)C2O[C@]3(C=CC(=O)[C@]4(CC[C@@](C)([C@H]5CC[C@](O)(CC)[C@H](C)O5)O4)O3)[C@H](C)C[C@@H]2C)O1 (some centres undefined) : what is its TGI with SW-620 colon?
> 100 µM

----------
System: SK-OV-3 ovarian
Experiment: NCI tumour cell line growth inhibition, 48 h
Endpoint: TGI

Quick one: TGI for N#CC(C#N)c1ccc(C(=O)N2CCC[C@H]2CO)cc1 ?
> 100 µM

Please answer likewise for Cn1cc(C2=C(c3cccc(OC[C@@H](O)CO)c3)C(=O)NC2=O)c2ccccc21
> 25 µM

Please answer likewise for CC12CCC(=O)N1c1ccc([N+](=O)[O-])cc1N2 (stereo not given)
> 100 µM

Please answer likewise for N[C@H](C(=O)O)[C@@H]1CC(Br)=NO1
> 100 µM

Please answer likewise for CCOC(=O)/C=C/CCO[Si](C)(C)C(C)(C)C
> 100 µM

----------
System: SF-539 CNS
Test: NCI tumour cell line growth inhibition, 48 h
Quick list: TGI per entry.

Answered cases to consult:
COc1ccc(NC(=O)C2CCC(CNS(=O)(=O)c3ccccc3)CC2)cc1OC (stereo unspecified) = > 100 µM
NC(=O)C(=O)C1CCC2=C(Sc3ccccc3N2)C1=O (stereo unspecified) = > 100 µM
Cc1cc(C)nc(SC2=C(Nc3cc(Cl)ccc3O)C(=O)N(Cc3ccccc3)C2=O)n1 = > 160 µM
Cc1nc(C(=O)O)c2ccccc2n1 = > 100 µM
C[CH2][Sn]([CH2]C)([O]C(=O)c1ccccc1OC)[O][Sn]([CH2]C)([CH2]C)[O]C(=O)c1ccccc1OC = > 100 µM
Cc1cc(N(CCCNc2ccnc3cc(Cl)ccc23)Cc2ccco2)nc(N2CCN(C)CC2)n1 = 3.23 µM

Quick one: TGI for NS(=O)(=O)c1ccc(-c2cc3ccncc3cc2OCc2ccccc2)cc1 ?
> 25 µM

Please answer likewise for Cc1cc(N(CCC#N)CCC#N)ccc1/C(N=Nc1cccc(Cl)c1)=N/NC(=O)c1cc(Cl)ccc1O
> 100 µM

Please answer likewise for CC(N)Cc1ccc(Cl)c(Cl)c1 (stereo unspecified)
> 60.2 µM

Please answer likewise for O=C(CC1(O)C(=O)N(Cc2ccccc2)c2ccccc21)c1ccc(C(=O)NCC2CCC3(CC2)OOC2(CCCCC2)OO3)cc1 (stereo unspecified)
1.04 µM

Please answer likewise for COc1cc(/C=C/C(=O)c2cccc(-n3cc(-c4ccc(Cl)cc4)[nH]c3=O)c2)cc(OC)c1OC
14.3 µM

Please answer likewise for CC1=C(CC(=O)c2cccc([N+](=O)[O-])c2)C(=O)c2ccccc2C1=O
10.9 µM

Please answer likewise for O[C@@]12Cc3c([nH]c4ccccc34)[C@@H]3Oc4cccc5c4[C@@]31CCN(CC1CC1)[C@@H]2C5
36.3 µM

Please answer likewise for NNC(=O)c1c(-c2cccnc2)cnc2ccccc12
> 100 µM

Please answer likewise for O=[N+]([O-])c1ccc(C(=S)Nc2ccccc2)o1
4.58 µM

----------
Test system: MOLT-4 leukemia
Test: NCI tumour cell line growth inhibition, 48 h
Quick list: TGI per entry.

Answered cases to consult:
CCOC(=O)NNC(=O)NCc1cccc(CNC(=O)NNC(=O)OCC)c1 = > 100 µM
COc1ccc(N2C(=O)/C(=C\c3cc(OC)c(OC)c(OC)c3)SC2c2ccccc2)cc1 (stereo unspecified) = > 100 µM
COC(=O)CCCCC(=O)c1c(C)[nH]c(/C=C2\N=C(c3ccc[nH]3)C=C2OC)c1C = 1.74 µM
Cc1cn(CCCCC2=NCCCN2)c(=O)[nH]c1=O = > 37.1 µM
COc1ccc(CCC2c3cc(OC)c(OC)cc3CCN2C)cc1OC (stereo unspecified) = > 100 µM
CSc1nc2sc3c(c2c(=O)n1-c1ccc(C(C)C)cc1)CCC(=O)C3 = 6.71 µM
CON(C)c1nc(N(C)OC)nc(N(C)OC)n1 = > 10 µM
CC1=C(CC(=O)c2cccc([N+](=O)[O-])c2)C(=O)c2ccccc2C1=O = 14.1 µM
COc1cc(O)c2c(=O)c(O)c(-c3ccc(O)c(OC)c3)oc2c1 = > 25 µM
CC1=NN(c2nc(N)nc(/C(C#N)=C\c3csc([N+](=O)[O-])c3)n2)C(C)(C)C1 = > 100 µM

Quick one: TGI for NS(=O)(=O)c1nnc(NS(=O)(=O)C(F)(F)F)s1 ?
> 100 µM

Please answer likewise for CCCCCCNC(=O)Oc1ccc(/C(=C(\C)c2ccc(Cl)cc2)c2ccc(OCCN3CCCCC3)cc2)cc1
23.3 µM

Please answer likewise for O=C(N/N=C/c1ccc([N+](=O)[O-])cc1)Nc1ccc(C(=O)O)cc1
> 100 µM

Please answer likewise for C=C1CCC2[C@@H](CCC3[C@]2(C)CCC[C@]3(C)C(=O)OC)C1CC=O (stereo partly specified)
29.8 µM

Please answer likewise for COc1cc(/C=C/C(=O)c2cccc(-n3cc(-c4ccc(Cl)cc4)[nH]c3=O)c2)cc(OC)c1OC
> 100 µM

Please answer likewise for O=CNCNCCO
> 100 µM

----------
Quick list: TGI per entry.
System: COLO 205 colon
Experiment: NCI tumour cell line growth inhibition, 48 h

Answered cases to consult:
COc1ccc(OC)c(N(CN2C(=O)CCC2C(=O)O)C(C)=O)c1 (stereo unspecified) = > 100 µM
O=c1[nH]cc(F)c(=O)n1C1OC(CO)C(O)C1O (stereo unspecified) = > 100 µM
Cc1cc[n+]2c(c1)-c1cc(C)cc[n+]1CC2 = > 86.1 µM
COc1ccc(N2C(=O)/C(=C\c3cc(OC)c(OC)c(OC)c3)SC2c2ccccc2)cc1 (stereo unspecified) = > 100 µM
CC1=C(O)C2=C(C(=O)C1=O)[C@@H](C)CC[C@@H]2[C@@H](C)C/C=C/C(C)(C)O = > 100 µM

As a next step, examine the compound that follows.
Quick one: TGI for CCOC(=O)NNC(=O)NCc1cccc(CNC(=O)NNC(=O)OCC)c1 ?
> 100 µM
